Cited source: ChEMBL document CHEMBL1147011

# Tested on: FM3A
# procedureDetails: Cytotoxicity against mouse FM3A cell line
# Assay type: functional, cell-based
pEC50: −log10 of the molar value.
Assign t to entries whose pEC50 meets or exceeds 6; assign f to the rest.

### Prompt Identify whether the reported pEC50 of the following molecule is 6 or greater: CCCCCCCCCCCCCC[n+]1ccc(C(=O)NCCCCCCNC(=O)c2cc[n+](CCCCCCCCCCCCCC)cc2)cc1.[Br-].[Br-]
### Response f

### Prompt Confirm if pEC50 reported for the molecule CCCCCCCCCCCCCCCC[n+]1ccc(C(=O)NCCCCCCNC(=O)c2cc[n+](CCCCCCCCCCCCCCCC)cc2)cc1 is 6 or above.
### Response f

### Prompt Say whether CCCCCCCCCC[n+]1ccc(C(=O)NCCCCCCNC(=O)c2cc[n+](CCCCCCCCCC)cc2)cc1.[Br-].[Br-] shows pEC50 of 6 or more.
### Response t

### Prompt pEC50 >= 6 for CCCCCCCCCCCC[n+]1ccc(C(=O)NCCCCCCNC(=O)c2cc[n+](CCCCCCCCCCCC)cc2)cc1.[Br-].[Br-] ?
### Response t

### Prompt Item CCCCCC[n+]1ccc(C(=O)NCCCCCCNC(=O)c2cc[n+](CCCCCC)cc2)cc1.[Br-].[Br-] with pEC50 of 6 or above?
### Response f

### Prompt Determine whether this molecule has pEC50 no lower than 6: CCCCCCCC[n+]1ccc(C(=O)NCCCCCCNC(=O)c2cc[n+](CCCCCCCC)cc2)cc1.[Br-].[Br-]
### Response f
